Collected IC50 neutralization, 1 hour virus/Ab incubation values appear next to each entry.
- system_tested: HIV-1 92TH021 Env (HIV-1 strain 92TH021)
- test_summary: cell-based or functional assay
assay_endpoint: IC50 neutralization, 1 hour virus/Ab incubation (µg/mL)

[[record]]
binder = "1460_G14 (PGG14) (antibody, human IgG1, kappa, V domains shown) VH: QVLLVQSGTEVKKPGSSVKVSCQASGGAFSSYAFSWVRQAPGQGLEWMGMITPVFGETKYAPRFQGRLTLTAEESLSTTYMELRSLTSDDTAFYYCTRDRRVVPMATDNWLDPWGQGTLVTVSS VL: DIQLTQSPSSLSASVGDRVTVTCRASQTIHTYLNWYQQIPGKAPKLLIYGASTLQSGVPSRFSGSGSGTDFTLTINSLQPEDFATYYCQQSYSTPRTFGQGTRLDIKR"
relation_symbol = ">"
reported_value = 50

[[record]]
binder = "1496_C09 (PG9) (TCN-109) (antibody, V domains shown) VH: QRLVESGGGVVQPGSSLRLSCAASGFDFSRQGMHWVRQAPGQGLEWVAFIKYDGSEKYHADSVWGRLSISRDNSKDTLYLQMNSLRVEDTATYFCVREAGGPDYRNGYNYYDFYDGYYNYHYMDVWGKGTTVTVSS VL: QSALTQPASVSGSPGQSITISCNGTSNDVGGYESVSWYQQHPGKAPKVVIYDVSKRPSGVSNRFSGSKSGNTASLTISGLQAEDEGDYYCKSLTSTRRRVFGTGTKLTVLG"
relation_symbol = "="
reported_value = 0.0612

[[record]]
binder = "1456_P20 (PG20) (antibody, human IgG1, kappa, V domains shown) VH: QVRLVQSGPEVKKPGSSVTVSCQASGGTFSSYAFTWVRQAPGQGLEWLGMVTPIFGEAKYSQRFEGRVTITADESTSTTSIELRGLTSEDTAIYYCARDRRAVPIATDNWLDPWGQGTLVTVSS VL: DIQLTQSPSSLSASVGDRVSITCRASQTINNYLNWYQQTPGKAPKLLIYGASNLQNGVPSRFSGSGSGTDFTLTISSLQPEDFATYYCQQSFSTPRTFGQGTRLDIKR"
relation_symbol = ">"
reported_value = 50

[[record]]
binder = "1443_C16 (PG16) (TCN-116) (antibody, V domains shown) VH: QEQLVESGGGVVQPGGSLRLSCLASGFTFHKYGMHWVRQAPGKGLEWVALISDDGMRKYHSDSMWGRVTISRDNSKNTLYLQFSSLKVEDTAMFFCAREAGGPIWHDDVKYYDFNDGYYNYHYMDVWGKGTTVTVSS VL: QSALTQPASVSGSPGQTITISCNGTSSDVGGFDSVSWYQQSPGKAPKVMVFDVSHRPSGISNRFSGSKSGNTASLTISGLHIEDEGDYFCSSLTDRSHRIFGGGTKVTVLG"
relation_symbol = "="
reported_value = 0.136

[[record]]
binder = "1495_C14 (PGC14) (antibody, human IgG1, lambda, V domains shown) VH: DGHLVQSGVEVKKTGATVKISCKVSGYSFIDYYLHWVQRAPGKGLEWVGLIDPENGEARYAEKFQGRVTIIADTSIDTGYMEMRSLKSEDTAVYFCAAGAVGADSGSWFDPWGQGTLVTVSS VL: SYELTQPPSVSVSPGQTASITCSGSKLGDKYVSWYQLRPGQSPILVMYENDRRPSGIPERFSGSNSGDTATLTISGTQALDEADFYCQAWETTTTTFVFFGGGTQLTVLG"
relation_symbol = ">"
reported_value = 50

